Values were extracted from patent US20240101668A1.

Target: T1, huCLL1-Q244-Avi-Tev-His (human, UniProt Q5QGZ9 65-265);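 further: Bio-layer interferometry with scFvs captured on biosensors via anti-V5 antibody, exposed 2 min to CLL-1 K244 or Q244 protein, 5 min dissociation, scored as binding, no binding or ambiguous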
T1 construct: extracellular domain; also called CLL-1 K244Q
T1 sequence (looked up): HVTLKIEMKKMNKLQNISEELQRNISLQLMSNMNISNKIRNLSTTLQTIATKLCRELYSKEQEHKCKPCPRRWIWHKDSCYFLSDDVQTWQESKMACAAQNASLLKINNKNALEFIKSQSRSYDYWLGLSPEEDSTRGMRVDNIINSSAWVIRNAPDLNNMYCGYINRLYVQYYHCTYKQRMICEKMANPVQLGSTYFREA
Assay: BLI
measured.property: binding result

>>> result("Polypeptide No. 65 (scFv, V domains shown, scFv) VH: QVQLVQSGAEVKKPGASVKVSCKASGYTFTGYYMHWVRQAPGQGLEWMGWINPNSGGTNYAQKFQGRVTMTRDTSTSTVYMELSSLRSEDTAVYYCAREIGGYDNYYYYGMDVWGQGTTVTVSS VL: DIQMTQSPSSLSASVGDRVTITCRASQSIGTYLNWYQQKPGKAPKLLIYAASSLQSGVPSRFSGSGSGTDFTLTISSLQPEDFATYYCQQSYTDPWTFGQGTKVEIKR")
"no binding"
>>> result("Polypeptide No. 56 (scFv, V domains shown, scFv) VH: QVQLVQSGAEVKKPGASVKVSCKASGYTFTSYDINWVRQAPGQGLEWMGWMNPNSGNTGYAQKFQGRVTMTRDTSTSTVYMELSSLRSEDTAVYYCARVSATGTYGLDYWGQGTLVTVSS VL: DIQMTQSPSSLSASVGDRVTITCRASHSISSWLAWYQQKPGKAPKLLIYDASNLETGVPSRFSGSGSGTDFTLTISSLQPEDFATYYCQQADSFPLTFGGGTKVEIKR")
"no binding"
>>> result("Polypeptide No. 54 (scFv, V domains shown, scFv) VH: QVQLVQSGAEVKKPGASVKVSCKASGGTFSSYAISWVRQAPGQGLEWMGWIDPKNGDTNYAQKFQGRVTMTRDTSTSTVYMELSSLRSEDTAVYYCATEGSHHPYYYYGMDVWGQGTTVTVSS VL: DIQMTQSPSSLSASVGDRVTITCRASQGIGNWLAWYQQKPGKAPKLLIYEASTLQSGVPSRFSGSGSGTDFTLTISSLQPEDFATYYCHQYNAYPWTFGQGTKVEIKR")
"no binding"
